- assay overview: Primary fluorescence-based thiol-reactive (MSTI) qHTS assay for identification of artifact compounds. (AID 1845221); note: nearly all actives have a fitted effect of over 65% in size
- assay setup: MSTI thiol-reactivity probe, 1 h; series mostly up to 53.8 µM
Results filed as inconclusive are left out. Active and inactive are the calls of the source. Calls come from the whole dose curve; as a rule, active = well fitted inhibition curve with a large enough effect; inconclusive = small, poorly fitted or top-dose-only effect; inactive = no such curve, though single readings can be large or run the other way.
Possible outcomes: True for active, False for inactive

| molecular string | label |
| --- | --- |
| Cc1cc(C)c(-c2csc(NC(=O)c3ccccc3)n2)c(C)c1 | False |
| Cc1cc(N=Nc2ccc(S(=O)(=O)Nc3ccccn3)cc2)c(N)cc1O | True |
| CC1CCN(c2cc(NC(=O)c3ccccc3)ncn2)CC1 | False |
| CC[C@H]1OC(=O)[C@H](C)[C@@H](O[C@H]2C[C@@](C)(OC)[C@@H](O)[C@H](C)O2)[C@H](C)[C@@H](O[C@@H]2O[C@H](C)C[C@H](N(C)C)[C@H]2O)[C@](C)(O)C[C@@H](C)/C(=N/OCOCCOC)[C@H](C)[C@@H](O)[C@]1(C)O | False |

---

- Test system: OV90
- assay overview: Primary qHTS to identify gynecologic anti-cancer compounds using libraries of approved drugs and bioactive compounds (AID 1345084); note: nearly all actives have a fitted effect of over 55% in size
- assay setup: Gynecologic cancer cell panel viability, ATPlite luminescence, 48 h; series mostly up to 57.5 µM
- Text: National Center for Advancing Translational Sciences [NCATS] Assay Overview: Chemotherapeutic drug responses vary from cancer to cancer and from patient to patient. […] ATPlite is a luminescence based assay reliant on the conversion of a luciferase substrate to light in the presence of ATP. As a cytotoxic compound will suppress growth and decrease the number of cells, the concentration of ATP will decrease, and less light signal will be detected in the well. […]
Inconclusive results are not listed. Calls of active or inactive are those of the source. The call rests on the fitted dose curve; in most records, active means well fitted cell-killing curve with a large enough effect; inconclusive means small, poorly fitted or top-dose-only effect, or effect the other way; inactive means flat fitted curve, though single readings scatter.
Possible outcomes: active, inactive

| compound | label |
| --- | --- |
| CCCCn1c(-c2ccccc2)nc(-c2ccccc2)c1CN(Cc1ccc2c(c1)OCO2)Cc1ccc2c(c1)OCO2 | inactive |
| Fc1ccccc1CNCc1ccc(-c2ccnc3[nH]ccc23)cc1 | inactive |
| CC1CCC2C(=CCC(O)C2(C)C)C1(C)Cc1c(O)cc(CO)c(C=O)c1O (stereo not given) | inactive |
| COc1ccc(-c2cc(C(O)C3CCCCN3)c3ccccc3n2)cc1 (stereo not given) | active |
| CCC(=O)c1cc(-c2ccc(Cl)cc2)n(-c2ccc(S(N)(=O)=O)cc2)c1C | inactive |

---

- study target: Lysosomal acid glucosylceramidase (Homo sapiens)
- assay overview: Glucocerebrosidase-p2 (AID 348); note: potency is the fitted concentration of half-maximal effect
- assay setup: purified GBA, blue fluorogenic substrate, 40 min
Activity calls are given as the source filed them. Cut-off read from the data, not from the text of the source: active = potency below about 10 µM; inactive = the rest.
Labels: t (active), f (inactive)

| molecular string | label |
| --- | --- |
| CN(C)C/C=C(\c1ccc(Br)cc1)c1cccnc1 | f |
| NCCC[C@@H](N)C(=O)O | f |
| O=C(O)c1c(Br)c(Br)c(Br)c(Br)c1C1c2ccc(O)cc2Oc2cc(O)ccc21 | t |
| c1csc(CNc2ncnc3ccc(-c4ccc5c(c4)OCO5)cc23)c1 | f |
| Cc1c2ccccc2c(CSC(=N)N)c2ccccc12 | t |
| COC(=O)[C@@H]1[C@@H]2C[C@H]3c4[nH]c5ccccc5c4CCN3C[C@@H]2CC[C@@H]1O | f |

---

Catalogue of activity, negative = inhibition readings, one per entry.
- study target: Cytochrome P450 2C19 (Homo sapiens)
- assay overview: qHTS Assay for Inhibitors and Substrates of Cytochrome P450 2C19 (AID 899); note: % is set by controls: 0 for no effect and ±100 for the full control effect; nearly all actives have a fitted effect of over 60% in size
- assay setup: recombinant CYP2C19, luciferin-H EGE luminescence; series mostly up to 57.1 µM
Records with an inconclusive call do not appear. Activity calls are given as the source filed them. Calls come from the whole dose curve; as a rule, active = well fitted inhibition curve with a large enough effect; inconclusive = small, poorly fitted or top-dose-only effect; inactive = no such curve, though single readings can be large or run the other way.
parameter: activity, negative = inhibition

| molecule | result |
| --- | --- |
| CCCCCCCC1=CC2=CC(=O)C(C)(O)C(=O)C2=CN1CCCC (stereo not given) | 80.9% [at 11.4 µM] (inactive) |
| COC(=O)C(C(C)=O)C(=O)C(Cc1ccccc1)NC(=O)OCc1ccccc1 (stereo not given) | -11.9% [at 11.4 µM] (inactive) |
| COCn1c2ccccc2c2nnc(C(=O)O)nc21 | 65.8% [at 11.4 µM] (inactive) |
| Cc1c(O)c(=O)ccn1Cc1ccccc1 | 38.4% [at 11.4 µM] (inactive) |
| C=CCC1(O)C=CCC2C3C4C(OC(C)(C)C)C2C1C34 (stereo not given) | -32.4% [at 11.4 µM] (inactive) |
| CC1(O)C(=O)C=C2C=C(CCCCOCc3ccccc3)OC=C2C1=O (stereo not given) | -23.3% [at 11.4 µM] (inactive) |
| Cc1c(O)c(=O)c2ccccc2n1C | 73.4% [at 11.4 µM] (inactive) |
| Cn1c(-c2ccccc2)c(O)c(=O)c2ccccc21 | 50% [at 11.4 µM] (inactive) |
| CCCCCCCC1=CC2=CC(=O)C(C)(OC(C)=O)C(=O)C2=CN1CCc1ccccc1 (stereo not given) | 78.5% [at 11.4 µM] (inactive) |
| CC(C)=CCC1(CC=C(C)C)C(=O)C(C(=O)c2ccccc2)=C2OC(C)(C)CCC2(CC=C(C)C)C1=O (stereo not given) | -5.29% [at 11.4 µM] (inactive) |

---

- assay overview: qHTS for Inhibitors of Plasmodium falciparum (HB3) proliferation (AID 504318); note: nearly all actives have a fitted effect of over 60% in size
- assay setup: P. falciparum HB3 in erythrocytes, SYBR Green DNA, 72 h; series mostly up to 7.21 µM
- Excerpt: Plasmodium falciparum is a virulent malarial parasite that kills 1-2 million people worldwide each year. Malaria not only inflicts tremendous suffering and morbidity on the human population, but has dramatically influenced the course of civilization with profound sociological and economic implications (Shah, S. 2010). […] Because mature erythrocytes lack DNA, only Plasmodium-derived DNA is detected. […]
Results filed as inconclusive are left out. Activity calls are given as the source filed them. The call rests on the fitted dose curve; in most records, active means well fitted inhibition curve with a large enough effect; inconclusive means small, poorly fitted or top-dose-only effect; inactive means flat fitted curve, though single readings scatter.
Outcomes: 1.0 = active, 0.0 = inactive

| molecule | label |
| --- | --- |
| COc1ccc2c(c1)O[C@H](c1ccc3c(c1)OCO3)[C@@H](OC(=O)NCCOc1ccccc1)C2=O | 0.0 |
| COC1=C[C@H](C(=O)NCc2ccc(Cl)cc2)C(C)C(c2ccccc2)CC1=O (stereo not given in full) | 0.0 |
| COC(=O)C1=C[C@@H]([C@@H](C)[C@H](OC)c2ccccc2Br)[C@@H]2OCCC[C@H]12 | 0.0 |
| CC1(OC(=O)CCc2ccccc2)C(=O)C=C2C=C(C3CC3)OC=C2C1=O (stereo not given) | 0.0 |
| CCCNC(=O)OC[C@H]1O[C@H](CCON=C(C)CCN2CCCCc3nc(C)c(C)cc32)C=C[C@H]1Oc1ccc(OC)cc1 | 1.0 |

---

- System: SKOV3
- assay overview: Primary qHTS to identify gynecologic anti-cancer compounds using libraries of approved drugs and bioactive compounds (AID 1345084); note: nearly all actives have a fitted effect of over 55% in size
- assay setup: Gynecologic cancer cell panel viability, ATPlite luminescence, 48 h; series mostly up to 57.5 µM
Inconclusive results are not listed. Activity calls are given as the source filed them. Calls come from the whole dose curve; as a rule, active = well fitted cell-killing curve with a large enough effect; inconclusive = small, poorly fitted or top-dose-only effect, or effect the other way; inactive = flat fitted curve, though single readings scatter.
Outcomes: true (1) (active), false (0) (inactive)

| molecule | label |
| --- | --- |
| CN(CCCNC(=O)c1ccc2nc3c(c(Cl)c2c1)CCCC3)Cc1ccccc1 | false (0) |
| C[C@@H](CN1CCC(n2c(=O)[nH]c3cc(Cl)ccc32)CC1)NC(=O)c1ccc2ccccc2c1 | false (0) |
| C=C(C)C(=O)O[C@H]1[C@H]2C(=C)C(=O)O[C@@H]2C[C@@H](C)[C@@H]2O[C@@H]2C(=O)[C@](C)(O)[C@@H]1OC(C)=O | true (1) |
| COc1ccc2c(c1)C[C@H](C(=O)Nc1ccc(-c3cn[nH]c3)cc1OCCN(C)C)CO2 | false (0) |
| CN(Cc1ccc(C(=O)O)cc1)c1ccc(OCc2c(-c3c(Cl)cccc3Cl)noc2C2CC2)nc1C(F)(F)F | false (0) |
| CC/C(=C(\c1ccc(O)cc1)c1ccc(OCCNC)cc1)c1ccccc1 | false (0) |
| CC1CCN(C(c2ccc(F)cc2)c2ccc(C(C)C(=O)O)cc2-c2ccc(C(F)(F)F)cc2)CC1 (configuration not stated) | false (0) |
| CCC(C)n1cc(C)c2c(C(=O)NCc3c(C)cc(C)[nH]c3=O)cc(-c3ccc(N4CCNCC4)nc3)cc21 (configuration not stated) | false (0) |
| O=C(NC(NC(=S)Nc1ccc(F)c([N+](=O)[O-])c1)C(Cl)(Cl)Cl)C(c1ccccc1)c1ccccc1 (configuration not stated) | false (0) |
| CC(C)CCC[C@@H](C)[C@H]1CC[C@H]2[C@@H]3CC=C4C[C@@H](OC(=O)NCCN(C)C)CC[C@]4(C)[C@H]3CC[C@]12C | true (1) |
| CC(=O)C1=C(O)C2c3c[nH]c4cccc(c34)CC2C(C)(C)N(C)C1=O (configuration not stated) | false (0) |
| O=S(=O)(c1cccc2ccccc12)n1ccc2ccc(N3CCN4CCCC4C3)cc21 (configuration not stated) | false (0) |
| Cc1ccc(C2(COC(=O)C(C)C)CO2)c(OC(=O)C(C)C)c1 (configuration not stated) | false (0) |
| N#CCC(C1CCCC1)n1cc(-c2ncnc3[nH]ccc23)cn1 (configuration not stated) | false (0) |
| c1ccc(-c2cnc(Nc3ccc(OCCN4CCCC4)cc3)s2)cc1 | true (1) |
| COc1ccc(-c2nc(-c3cc(C(F)(F)F)cc(C(F)(F)F)c3)n(Cc3ccc(C(N)=O)cc3)c2-c2ccc(OC)cc2)cc1 | false (0) |
| CCCCc1nc(Cl)c(CO)n1Cc1ccc(-c2ccccc2-c2nnn[nH]2)cc1 | false (0) |
| CCOC(=O)CCC(=O)O[C@H]1[C@H](O[C@@H]2[C@@H](C)[C@H](O[C@H]3C[C@@](C)(OC)[C@@H](O)[C@H](C)O3)[C@@H](C)C(=O)O[C@H](CC)[C@@](C)(O)[C@H](O)[C@@H](C)C(=O)[C@H](C)CC2(C)O)O[C@H](C)C[C@@H]1N(C)C (some centres not stated) | false (0) |
| Cc1nc(C)c2c(n1)N(Cc1ccc(-c3ccccc3-c3nn[nH]n3)cc1)C(=O)CC2 | false (0) |
| Cc1ccc2c(Nc3ccc(Cl)cc3)nccc2c1Nc1ncccc1-c1ncnc2nc[nH]c12 | true (1) |
| CCCCn1c(-c2ccccc2)nc(-c2ccccc2)c1CN(Cc1ccc2c(c1)OCO2)Cc1ccc2c(c1)OCO2 | false (0) |
| CS(=O)(=O)c1ccc(-c2cn3ccccc3n2)cc1 | true (1) |
| Cc1cc(CN)cc(C)c1NC(=O)c1ccc(-c2cc(Cl)ccc2Cl)o1 | false (0) |
| C[N+]1(C)[C@@H]2CC[C@H]1CC(OC(=O)C(O)c1ccccc1)C2 (some centres not stated) | false (0) |
| CN(C)CC(=O)Nc1ccc2[nH]c(=O)c3ccccc3c2c1 | false (0) |
| CC1CCC2C(=CCC(O)C2(C)C)C1(C)Cc1c(O)cc(CO)c(C=O)c1O (configuration not stated) | false (0) |
| COc1ccc(C(=O)N(CCC(C)C)Cc2nc(C)c(C)n2Cc2ccccc2C)c(OC)c1 | false (0) |
| C[C@@H](O[C@H]1OCCN(Cc2n[nH]nc2CN(C)C)[C@H]1c1ccc(F)cc1)c1cc(C(F)(F)F)cc(C(F)(F)F)c1 | false (0) |
| CCNC(=O)[C@@H]1CCCN1C(=O)[C@H](CCCN=C(N)N)NC(=O)[C@H](CC(C)C)NC(=O)[C@@H](CC(C)C)NC(=O)[C@H](Cc1ccc(O)cc1)NC(=O)[C@H](CO)NC(=O)[C@H](Cc1c[nH]c2ccccc12)NC(=O)[C@H](Cc1cnc[nH]1)NC(=O)[C@@H]1CCC(=O)N1 | false (0) |
| CC1=CC(=O)[C@@]2(C(C)C)C[C@@H]12 | false (0) |
| CC1CCC2C(C)(C)C(O)CCC2(C)C12Cc1c(O)cc3c(c1O2)CN(C(CCCN=C(N)N)C(=O)O)C3=O (configuration not stated) | false (0) |
| C=C1C(=O)O[C@@H]2C[C@@H](C)[C@]34C[C@]5(C(=O)O[C@H]6CC(C)=C([C@H](C)CCCO)[C@H](OC(=O)C(C)CC)[C@H]65)[C@@H](C(C)=C3C[C@@H]12)[C@H]4OC(C)=O (some centres not stated) | false (0) |
